PROTOCOL: yeast display, Sf9 membrane polyspecificity reagent, FACS + sequencing; frameworks hold sequencing errors
PROPERTY_NAME: polyreactivity (PSR sort gate)

Completed entries (count: 8):
QVQLVESGGGLVQAGGSLRLSCAASGSIFVQYAMGWYRQAPGKERELVAAISRGGGRTYYADSVKGRFTISRDNANNTVYLQMNSLKPEDTAVYYCAADSRPRDDYWGQGTQVTVSS | high polyreactivity
QVQLVESGGGLVQAGGSLRLSCAASGSTFYAYAMGWYRQAPGKERELVAAIDSGGSTYYADSVKGRFPISRDNAKNTVYFQMNSLNPEDTAVYYCAVRHRYTRAYWGRDYWGQGTQVTVSS | low polyreactivity
QVQLVESGVGLVQAAGSLRLSCAASGRIFYHYTMGWYRQAPGKERELVAAITSGGSTYYADSVKGRFTISRDNAKNTVYLQMNSLKPEDTAVYYCAAEGYTYYPVYSTRMYYWGQGTQVTVSS | low polyreactivity
QVQLVESGGGLVQAGGSLRLSCAASGRIFTWNARGWYRQAPGKERELVARISSGTRTNYADSVKGRFTISRDNAKNTVYLQMYSLKPEDTAVYYCAAAAKRTDAYHNRRYYWGQGTQVTVSS | high polyreactivity
QVQLVESGGGLVQAGGSLRLSCAASGSTFNSYAMGWYRQAPWKERELVAAISSTGGNTYYADSVKGRFTISRDNAKNTVYLQMNSLKPEDTAVYYCNARRYGKVVRSRYNYWGQGTQVTVSS | high polyreactivity
QVQLVDSGGGLVQAGGSLPLICADAGSTFNSYAMGRYRQAPGKKRELVAAIRWIGDSTYADSVKGRFTISRDNATNTVYLQMNSLKPVDTAVYYCAATDVSWGVDYWGQCTQVTVSS | low polyreactivity
QVQLVESGGGLVQAGGSLRLSCAASGSTFVSNAMGWYRQAPGKEREFVAAISGSGGSTYYADSVKGRFTISRDNAMNTVYLQMNSLKPEVTAVYYCATAGRYGRYRTYPYRSKYDYWGQGTQVTVSS | high polyreactivity
QVQLVESGGGLVQAGASLRLSCAASGGIFDLYAMGWYRQAPGKERELVAAITRSGSSTFYADSVKGRFTISRDNAKNTVYLQMNSLKPEDSAVYYCNARYCWYGTYGGDYWGQGTQVTVSS | low polyreactivity

Which polyreactivity (PSR sort gate) value belongs to QVQHVESGGGLVQAGGSLRLSCAASGRTFITYAMGWYRQGPGKERELVATISGGGGTNYADSVKGRFTISRDNAKNTVYLQMNSLKPEDTAVYYCNKRAWYVYTHFDYWGLGTQVTVSS ? low polyreactivity

How about QVQLVESGGGLVQAGGSLRLSCAASGFTFIRNAMGWYRQAPVKERELVAAISKSGGTTYYADSVKGRFTISRDNAKNTVYLQMNSLKPEDTAVYYCNKGIGRSDPDYRYYYWGQGTQVTVSS ? high polyreactivity

Now the same for QVQLVESGGGLVQAGGSLRLSCAASGRTFTGNAMGCYRQAPGKERELVAAISTSGTRTSYADSVKGRFTISRDNAKNTVYLQMNSLKPEDTAVYYCAALRKSLYRTYTYDYWGQGTQVTVSS high polyreactivity

---

PROTOCOL: yeast display, Sf9 membrane polyspecificity reagent, FACS + sequencing; frameworks hold sequencing errors
PROPERTY_NAME: polyreactivity (PSR sort gate)

QVQLVESGGGLVQAGASLRLSCAASGSTQGWYAMGRYRQAPGKERELVAAISWSGSSTYYADSVKGRFTISRDTAKNTVYLQMNSLKPEDTAVYYCATTSSEVGELRICDYWGQGTQVTVSS | low polyreactivity
QVQLVESGGGLVQAGGSLRLSCAASGRTFYANAMGWYRQAPGKERELVAGISYSGGNTYYADSVKGRFTISRDNAKNTVYLQMNRLKPEYTAVYYCAAATDWEYWTYEYWRQGTQVTVSS | low polyreactivity
QLQLVESGGGLVQAGGSLRLSCAASGSTFDTYAMGWYRHAPGKERELVAGINTDGDNTYYADSVKGRFTISRDNAKNTVYVQMNSLKPEDTAVYYCAARFYRASGRTPSYRGHHYDYWGQATQVTVSS | low polyreactivity
QVQLVESGGGLVQAGGSLRLSCAASGRTFPFNVMGWYRQAPGKERELVAAISSGGSTNYADSVKGRFTISRDNAKNTVYLQMNSLKPEDTAVYYCAAYSVYGRYGRTFYYWGQGTQVTVSS | high polyreactivity
QVQLVESGGGLVQAGGSLRLSCAASGFTFYPYTMGWYRQAPGKERELVADITYDSTYYADSVKGRFTISRDNAKNTVYLQMNSLKPEDTAVYYCNATGYSVSRSAYWYGWYDYWGQGTQVTVSS | low polyreactivity

// polyreactivity (PSR sort gate) lookup, key: QVQLVESGGGLVQAGGSLRLSCAASGIILYRNGMGWYRQAPGKERELVAASSWSTGSTYYADSVKGRFTISRDNAKNTVYLQMNSLKPEDTAVYYCATDYVGYSFGMYYWGQGTQVTVSS low polyreactivity

// query: QFQLGESGGGLVQAGGSLRLSCAASGSTFSGYTKGWYRQARGKEREFVAAISSRGGSTYYADSVKGRFTISRDNAKNTVYLQMYRLNPEDTAVYYCAAKVCARVDGRQFRMEYWGQGTQVTVSS high polyreactivity

Next record, please: QVQLVESGGGIVQAGGRLRLRCAASGFTFGRYAMGWYRQEPGKEREFVAAITWSGGGTYYADSVKGRFTISRDNAKNTVYLQMNSLKPEDTAVYYCAADRRAYGGGYLGQGTQVTVSS high polyreactivity

What do you get for QVQLVESGGGLVQAGGSLRLICAASGSTYSYYAMAWYRQAPGKERELVAAINSSGGSTYYADSEKGRFTISRDKAKNTVYLQMNSLKPEDTAVYYGAAARRRTGVRMDYWGQGTQVTVSS ? high polyreactivity

For QVQLVESGGGLVQAGGSLRLSCAASGLIFRTNAMGGYRQAPGKERELVAAISWSTGTTYYADSVKGRFTISRDIAKNTVYFQMNSVNPEDTAVSYCARTLRWTYRYGYWGQGTQVTVSS then? high polyreactivity

Also, QVQLVDSGGGLVQAGGSLRLSCAASGSTFRGYAMGWYRQSPGKERELVAAITGSAGSTYYADSVKGRFTISRDNAKNTVYLQMNSLKPEDTAVYYCAAATSYRRYYYIYNYWGQGTQVTVSS please. high polyreactivity

---

PROTOCOL: yeast display, Sf9 membrane polyspecificity reagent, FACS + sequencing; frameworks hold sequencing errors
PROPERTY_NAME: polyreactivity (PSR sort gate)

Some sequences with known polyreactivity (PSR sort gate) results, for comparison:
QVQLVESGGGLVQAGGSLRLSCAASGGIFTGYAMGRYRQAPGKERELVAAISSGGTTYYADSVKGRFTISRDNAKNTVDLQMNSLKPEDTAVYYCAAGFYLRAVWMDYWGQGSQVTVSS | high polyreactivity
QVQLVESGGGLVQAGGSLRLSCAASGRTFPRYAMGWYRQAPGKERELVADISFSGDSTSYADSVKGRFTISRDNAKNTVYLQMNSLKPEDTAVYYCNADYKSTVFRYSGSRNYWGQGTQVTVSS | low polyreactivity
QVQLVESGGGLVQAGGSLRLSCAASGRIFNDYAMGWYRQAPGKERELVATYADSVKGRFTISRDNAKNTVYLQMNSLKPEDTAVYYCAADFPSFPDFRPEYDYWGQGTQVTVSS | low polyreactivity
QVQLVESGGGLVQAGGPLRLSCAASGRIVWNAMGWYRQAPGKEREFVASITWSVGSTYYADSVKGRFTISRDNAKNTVYLQMNSLKPEDTAVYYCAADSYSGYYYWGQGTQVTVSS | high polyreactivity
QVQLVESGGGLVQAGGSLRLSCAASGSTFGGYAMGWYRQAPGKERELVASISGGTRTNYADSVKGRFTISRDNAKNTVYLQMNSLKPEDTAVYYCAAEVGLPTWYTLPVDDYDYWGQGTQVTVSS | low polyreactivity

Any idea what its polyreactivity (PSR sort gate) is? The sequence is QVQLVESGGGLVQAGGSLSLSCAAYGSTFLRNAMGWYRQAPGKKGSWVATISYDGDSTYYADSVKGRFTISRDNAKNTVYLQMYSLKPEDTAVYYCAASYSLTFWDKDDYWGQGTQVTVSS low polyreactivity

---

PROTOCOL: yeast display, Sf9 membrane polyspecificity reagent, FACS + sequencing; frameworks hold sequencing errors
PROPERTY_NAME: polyreactivity (PSR sort gate)

The examples below pair each entry with its known result.
QVQLVESGGGLVQAGGSLRLSCAASGSIFNRYAMGWYRQAPRKERELVAAITAGGSSTYYADSVKGRFTISRDNAKNTVYLQMNSLKPEDTAVYYCNAVWWHPKDYDYWGQGTQVTVSS | low polyreactivity
QVQLVESGGGLVQAGGSLRLSCAASGSTFPYYAMGCYRQAPGKERELVAAISWSDANTYYADSVKGRFTISRDNAKNTVYLQMNSLKPEDTAVYYCAAEPYDRYVPYTGYGLNYWGQGTQVTVSS | low polyreactivity
QVQLVESGGGLVQAGGSLRISCAASGFTIAYYAMGWYRQAPGKERQKVASISSGDSTHYADSVKGRFTISRDNAKNTVYLQMNSLKPEDTAVYYCNADTRTFYYAAKTGFTFLYGYWGQGTQVTVSS | high polyreactivity
QVQLVESGGGLVQAGGSLRLSCAASGSIFGDYAMGWYRQAPGKERELVADISSGGSTTYADSVTGRFTISRDNAKNTVYLQMNSLKPEDTAVYYCAVDGGDFSSYGNWGQGTQVTVSS | low polyreactivity

Form field: reported polyreactivity (PSR sort gate) of QVQLVESGGGLVQAGGSLRLSCAASGSTFVKYAMGWYRQAPGKERELVATITRRGGNTYYADSVKGRFTISRDNAKYTVYLQMNSLKPEDTAVYYCAKYSRTKAFEYWGQGTQVTVSS high polyreactivity

Continue with QVQLVESGGGLVQAGGSLRLTCAASGFIFDEYAMGWYRQAPGKERELVAAISWSGSRTYYADSVKGRFTISRDNAKTTVYLQMNSLKPEDTAVYYCAKVTGVGAGRRNYWGQGTQVTVSS high polyreactivity

Please answer likewise for QVQLVESGGGLVQAGGSLRLSCAASGRTFRTYTMGWYRQAPGKEREFGAAITSSGASTYYADSVKGRFTISRDNAKNTVYLPMNSLKPEETAVYYCAARYGRRLVWVPALLYDYWGQGTQVTVSS high polyreactivity
